Source listed as patent US20240261292A1.

- experimental-details: Metabolic stability in mouse liver microsomes
- Assay type: in vitro ADME
- test-context: mouse liver microsomes, pH 7.4, 0.5 mg/mL microsomes protein, read-out: Mouse LM Clint
quantity-measured: microsomal CLint at 1 μM

Q: Can you share its microsomal CLint at 1 μM? I mean this molecule: CCN(C(=O)c1cc(F)ccc1Oc1nncnc1N1CCC2(C1)CN([C@H](CCCN(C)CCOC)C(C)C)C2)C(C)C [Compound A3]
Ans: < 7.5 µL/min/mg

###

- experimental-details: Mouse PK (in vivo T1/2 and oral bioavailability)
- test-context: male, CD-1, mouse, in vivo, iv, 1 mg/kg, fasted male CD-1 mice, single IV 0.5 or 1.0 mg/kg; formulating agent: A HP-β-CD, A3 Pyrogen free water
quantity-measured: half-life (h)
Number only, in h; omit the unit.

Q: Can you share its half-life? I mean this compound: CCN(C(=O)c1cc(F)ccc1Oc1nncnc1N1CCC2(C1)CN([C@H](CCCN(C)CCOC)C(C)C)C2)C(C)C [Compound A]
Ans: 6.7
